Biological target: mTORC2 (Homo sapiens, UniProt P42345+P62942)
Construct: endogenous in cells; host or cells: PC3 cells (human prostate adenocarcinoma)
Sequence (P62942 2-108 limits assumed, other chains not shown): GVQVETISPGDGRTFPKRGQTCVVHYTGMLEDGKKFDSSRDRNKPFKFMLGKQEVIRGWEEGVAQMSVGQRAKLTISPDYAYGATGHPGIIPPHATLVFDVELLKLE
Assay: Inhibition assay for mTORC2: phosphorylation of pAkt at Ser473, AlphaLISA in PC3 cells
Assay type: cell-based
Details: read-out: pIC50 mTORC2 (converted)
endpoint_label: IC50

Examples with their reported IC50 follow.
CO[C@@H]1C[C@H](C[C@@H](C)[C@@H]2CC(=O)[C@H](C)/C=C(\C)[C@@H](O)[C@@H](OC)C(=O)[C@H](C)C[C@H](C)/C=C/C=C/C=C(\C)C(OCCc3ccccc3)C[C@@H]3CC[C@@H](C)[C@@](O)(O3)C(=O)C(=O)N3CCCCC3C(=O)O2)CC[C@H]1O (stereo partly shown) = < 1000 nM
COC1C[C@@H]2CC[C@@H](C)[C@@](O)(O2)C(=O)C(=O)N2CCCCC2C(=O)O[C@H]([C@H](C)C[C@@H]2CC[C@@H](OCCN3CCN(C)CC3)[C@H](OC)C2)CC(=O)[C@H](C)/C=C(\C)[C@@H](O)[C@@H](OC)C(=O)[C@H](C)C[C@H](C)/C=C/C=C/C=C/1C (stereo partly shown) = < 1000 nM
CO[C@@H]1C[C@H](C[C@@H](C)[C@@H]2CC(=O)[C@H](C)/C=C(\C)[C@@H](O)[C@@H](OC)C(=O)[C@H](C)C[C@H](C)/C=C/C=C/C=C(\C)C(OCCOCCO)C[C@@H]3CC[C@@H](C)[C@@](O)(O3)C(=O)C(=O)N3CCCCC3C(=O)O2)CC[C@H]1O (stereo partly shown) = > 10000 nM

API: the following record is the query input.
Incoming: Report IC50 for COC1C[C@@H]2CC[C@@H](C)[C@@](O)(O2)C(=O)C(=O)N2CCCCC2C(=O)O[C@H]([C@H](C)C[C@@H]2CC[C@@H](OCCCN3CCOCC3)[C@H](OC)C2)CC(=O)[C@H](C)/C=C(\C)[C@@H](O)[C@@H](OC)C(=O)[C@H](C)C[C@H](C)/C=C/C=C/C=C/1C (stereo partly shown) please.
Outgoing: < 1000 nM

All figures here come from patent US11702429B2.
